All values here come from patent US20160297851A1.

Entries annotated with measured minimal inhibitory concentration (MIC)
Test system: lepB(P84L) P. aeruginosa PAO1
Assay: microbe, parasite or virus in culture
Format: cell-based, Pseudomonas aeruginosa
Conditions: Table 3, P3 position derivatives; unit not given

Here's what some known entries look like.
[[record]]
compound = "CCCCCCCCCCCCCCCC(=O)N(C)[C@H](CO)C(=O)N[C@H](C)C(=O)NCC(=O)N(C)[C@@H]1C(=O)NC(CC(F)(F)F)C(=O)N[C@H](C(=O)O)Cc2ccc(O)c(c2)-c2cc1ccc2O (stereo partly shown) [Compound 33]"
meas_value = ">64"

[[record]]
compound = "CCCCCCCCCCCCCCCC(=O)N(C)[C@H](CO)C(=O)N[C@H](C)C(=O)NCC(=O)N(C)[C@@H]1C(=O)N[C@@H](C(C)C)C(=O)N[C@H](C(=O)O)Cc2ccc(O)c(c2)-c2cc1ccc2O [Compound 34]"
meas_value = 16


*Q* # value lookup — system lepB(P84L) P. aeruginosa PAO1, readout minimal inhibitory concentration (MIC), item CCCCCCCCCCCCCCCC(=O)N(C)[C@H](CO)C(=O)N[C@H](C)C(=O)NCC(=O)N(C)[C@@H]1C(=O)N[C@@H](CCCCO)C(=O)N[C@H](C(=O)O)Cc2ccc(O)c(c2)-c2cc1ccc2O [Compound 32]
*A* >64

*Q* # value lookup — system lepB(P84L) P. aeruginosa PAO1, readout minimal inhibitory concentration (MIC), item CCCCCCCCCCCCCCCC(=O)N(C)[C@H](CO)C(=O)N[C@H](C)C(=O)NCC(=O)N(C)[C@@H]1C(=O)N[C@@H](CCCO)C(=O)N[C@H](C(=O)O)Cc2ccc(O)c(c2)-c2cc1ccc2O [Compound 31]
*A* >64
